- target system: T1, 6His-AviTag-linked cynomolgus monkey IL-33 (residues 112 to 269) (cynomolgus monkey, UniProt O95760 112-269 (human entry), biotin on the AviTag portion (BirA) in the SPR of Example 7; used without biotinylation in Example 10)
- T1 construct: GenBank EHH57404 printed; also called cynomolgus monkey IL-33 protein; mature cynomolgus monkey IL-33
- T1 chain: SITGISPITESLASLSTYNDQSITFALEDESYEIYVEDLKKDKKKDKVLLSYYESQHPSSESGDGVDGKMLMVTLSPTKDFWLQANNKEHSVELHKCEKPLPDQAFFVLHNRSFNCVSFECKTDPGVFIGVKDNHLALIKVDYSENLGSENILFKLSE
- assay comment: SPR, IL-33 on chip, Fab supernatant as analyte
measure name: koff (s⁻¹)
Give a bare numeral; the unit s⁻¹ is implied.

- binder: "A13-1G05 (Fab) (Fab, V domains shown, Fab secreted by E. coli, tested as culture supernatant; also called V7) VH: EVQLLESGGGLVQPGGSLRLSCAASGFTFSDYYVNWVRQAPGKGLEWVSSISRYSGYVYYADSVKGRFTISRDNSKNTLYLQMNSLRAEDTAVYYCARDIGGMDVWGQGTLVTVSS VL: QSVLTQPPSASGTPGQRVTISCTGSSSNIGAVYNVHWYQQLPGTAPKLLIYRNNQRPSGVPDRFSGSKSGTSASLAISGLRSEDEADYYCQSYDSSRWVFGGGTKLTVL"
  koff / s⁻¹: "5.45e-05"
- binder: "A13-1F07 (Fab) (Fab, V domains shown, Fab secreted by E. coli, tested as culture supernatant; also called V6) VH: EVQLLESGGGLVQPGGSLRLSCAASGFTFSVYYMNWVRQAPGKGLEWVSSISRYSGYVYYADSVKGRFTISRDNSKNTLYLQMNSLRAEDTAVYYCARDIGGMDVWGQGTLVTVSS VL: QSVLTQPPSASGTPGQRVTISCTGSSSNIGAVYNVHWYQQLPGTAPKLLIYRNNQRPSGVPDRFSGSKSGTSASLAISGLRSEDEADYYCQSYDSRRWVFGGGTKLTVL"
  koff / s⁻¹: "3.48e-05"

Could you now look at the following binder, please?
Measured koff, A25-3H04 (Fab) (Fab, V domains shown, Fab secreted by E. coli, tested as culture supernatant; also called V17) VH: EVQLLESGGGLVQPGGSLRLSCAASGFTFSRYYMHWVRQAPGKGLEWVSSISAQSSHIYYADSVEGRFTISRDNSKNTLYLQMNSLRAEDTAVYYCARLATRQNAFDIWGQGTLVTVSS VL: QSVLTQPPSASGTPGQRVTISCSGSSSNIGRNAVNWYQQLPGTAPKLLIYASNMRRSGVPDRFSGSKSGTSASLAISGLRSEDEADYYCSAWDDSQKVVVFGGGTKLTVL : 1e-05
